B1: ADD1 (parent)
chain: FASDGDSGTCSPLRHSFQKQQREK

Variants of: B1
MEASUREMENT_PROTOCOL: protein stability index of a GFP-peptide fusion (GPS, HEK-293T) (PSI 1-6); higher = more stable;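 further: lentivirally expressed fusions sorted by FACS into six bins by GFP to DsRed ratio, PSI derived from sequencing read proportions per bin multiplied by bin number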
SETUP_CONDITIONS: c terminus: a fixed tail appended
Given measured protein stability index, output 1 if it is greater than or equal to 3 and -1 if not.

PRIMARY_SEQUENCE: FASDGDSGTCSPLRHIFQKQQREK [S16I]
GROUP_LABEL: -1
--
PRIMARY_SEQUENCE: FASDGDSGTCSPLRGSFQKQQREK [H15G]
GROUP_LABEL: 1
--
PRIMARY_SEQUENCE: FASDGDSGTCSPLRHSFQKQQREG [K24G]
GROUP_LABEL: 1
--
PRIMARY_SEQUENCE: FASDGDSGTCSPLRHSFQIQQREK [K19I]
GROUP_LABEL: 1
--
PRIMARY_SEQUENCE: FASDGDSGTCSPLRHMFQKQQREK [S16M]
GROUP_LABEL: -1
--
PRIMARY_SEQUENCE: FASDGDSETCSPLRHSFQKQQREK [G8E]
GROUP_LABEL: 1
--
PRIMARY_SEQUENCE: FASDGDSGTCSPLRHSFQLQQREK [K19L]
GROUP_LABEL: -1
--
PRIMARY_SEQUENCE: FASDGDSGTCSPLRHSFQKYQREK [Q20Y]
GROUP_LABEL: -1
--
PRIMARY_SEQUENCE: FASDGDSGTCSPLEHSFQKQQREK [R14E]
GROUP_LABEL: 1
--
PRIMARY_SEQUENCE: FASDGDSGTCSALRHSFQKQQREK [P12A]
GROUP_LABEL: 1
--
PRIMARY_SEQUENCE: FASDGDSGTCSPLRHSFFKQQREK [Q18F]
GROUP_LABEL: 1
--
PRIMARY_SEQUENCE: FASDGDSGTCSPLRHSFIKQQREK [Q18I]
GROUP_LABEL: 1
--
PRIMARY_SEQUENCE: FASDGDRGTCSPLRHSFQKQQREK [S7R]
GROUP_LABEL: 1
--
PRIMARY_SEQUENCE: FASDGDSGTCSPLRHSFQKQQRCK [E23C]
GROUP_LABEL: 1
--
PRIMARY_SEQUENCE: FASDGDSGTCSPLRHSFQKQQRHK [E23H]
GROUP_LABEL: 1
--
PRIMARY_SEQUENCE: FASDGDSGTCSPLRHSFQKHQREK [Q20H]
GROUP_LABEL: 1
--
PRIMARY_SEQUENCE: FASDGDSGTCSPLRHSDQKQQREK [F17D]
GROUP_LABEL: 1
--
PRIMARY_SEQUENCE: FASDGDSGTCSPLRHSFQKQQREE [K24E]
GROUP_LABEL: 1
--
PRIMARY_SEQUENCE: FASDGRSGTCSPLRHSFQKQQREK [D6R]
GROUP_LABEL: 1

Data origin, for the record: the supplement of paper PMC10567573
